IC50 at 72 h values by entry
Test: Cytotoxicity against human NFF cells assessed as reduction in cell viability incubated for 72 hrs by SRB assay
Type: toxicity, cell-based

Take a look at these entries with their results.
molecule: CC1(C)CCN(c2nnc(S(=O)(=O)C3CCCCC3)o2)CC1
IC50 at 72 h: > 100 µM
//
molecule: O=S(=O)(c1nnc(N2CCCC2)o1)C1CCCCC1
IC50 at 72 h: > 100 µM
//
molecule: O=S(=O)(c1nnc(N2CCOCC2)o1)C1CCCCCC1
IC50 at 72 h: > 100 µM
//
molecule: CC(C)(C)OC(=O)N1CCC(S(=O)(=O)c2nnc(N3CCOCC3)o2)CC1
IC50 at 72 h: > 100 µM
//
molecule: C[C@@H]1CN(c2nnc(S(=O)(=O)C3CCCCC3)o2)C[C@H](C)O1
IC50 at 72 h: > 100 µM

Determine its reported IC50 at 72 h: `O=S(=O)(c1nnc(N2CCC3(CC2)OCCO3)o1)C1CCCCC1`
> 100 µM

Determine its reported IC50 at 72 h: `O=S(=O)(c1nnc(N2CCCOCC2)o1)C1CCCCC1`
> 100 µM

Determine its reported IC50 at 72 h: O=S(=O)(c1nnc(N2CC3CCC2C3)o1)C1CCCCC1 (racemic)
> 100 µM

Determine its reported IC50 at 72 h: `COC1CCN(c2nnc(S(=O)(=O)C3CCCCC3)o2)CC1`
> 100 µM

Determine its reported IC50 at 72 h: CC1CCCCN1c1nnc(S(=O)(=O)C2CCCCC2)o1 (racemic)
> 100 µM

Determine its reported IC50 at 72 h: `O=S(=O)(c1nnc(N2CCc3ccccc32)o1)C1CCCCC1`
> 25 µM

Determine its reported IC50 at 72 h: `C[C@@H]1CCC[C@H](C)N1c1nnc(S(=O)(=O)C2CCCCC2)o1`
> 100 µM

Determine its reported IC50 at 72 h: `O=S(=O)(c1nnc(N2CCCC3(COC3)C2)o1)C1CCCCC1`
> 100 µM

Determine its reported IC50 at 72 h: `CC(=O)N1CCN(c2nnc(S(=O)(=O)C3CCCCC3)o2)CC1`
> 100 µM

----------
Assay: Cmax in non fasted female BALB/c mouse plasma at 100 mg/kg, po via gavage and measured upto 24 hrs by LC-MS analysis
Format: ADME, organism-based
endpoint-name: Cmax (nM)
Answer format: numeric, nM implied, no suffix.

Take a look at these entries with their results.
test-smiles: O=S(=O)(c1nnc(N2CCOCC2)o1)C1CCCCCC1
units: nM
Cmax: 650
--
test-smiles: O=S(=O)(CC1CCC1)c1nnc(N2CCOCC2)o1
units: nM
Cmax: 2140
--
test-smiles: O=S(=O)(c1nnc(N2CCOCC2)o1)C1CCCCC1
units: nM
Cmax: 7610

Field: next compound
Determine its reported Cmax: `C[C@@H]1CCC[C@H](C)N1c1nnc(S(=O)(=O)C2CCCCC2)o1`
310

----------
Experiment: AUC (0 to t) in non fasted female BALB/c mouse plasma at 100 mg/kg, po via gavage and measured after 4 hrs by LC-MS analysis
Type: ADME, organism-based
endpoint-name: AUC(0-t) at 4 h (µM·h)
Answer format: numeric, µM·h implied, no suffix.

Determine its reported AUC(0-t) at 4 h: `O=S(=O)(CC1CCC1)c1nnc(N2CCOCC2)o1`
3.61

----------
System: Plasmodium falciparum
Experiment: Antimalarial activity against multidrug-resistant synchronous ring stage Plasmodium falciparum Dd2 infected in human Erythrocyte assessed as inhibition of parasite growth incubated for 48 hrs by [3H]-hypoxanthine incorporation assay
Type: functional, organism-based
IC50 values by entry
Answer format: numeric, µM implied, no suffix.

test-smiles: CC1CCN(c2nnc(S(=O)(=O)Cc3ccc(Cl)c(Cl)c3)o2)CC1
IC50 / µM: 10.1

Field: next compound
Report value only: IC50, Plasmodium falciparum, `Cc1ccc(C)c(CS(=O)(=O)c2nnc(N3CCOCC3)o2)c1`
13

----------
half-life values by entry
Assay: Metabolic stability in human liver microsomes assessed as half life
Format: ADME, Microsome

Take a look at these entries with their results.
test-smiles: CC1CCN(c2nnc(S(=O)(=O)Cc3ccc(Cl)c(Cl)c3)o2)CC1
endpoint-name: half-life
reported: 0.05 h
--
test-smiles: Cc1ccc(C)c(CS(=O)(=O)c2nnc(N3CCOCC3)o2)c1
endpoint-name: half-life
reported: 0.0833 h

Determine its reported half-life: `O=S(=O)(c1nnc(N2CCOCC2)o1)C1CCCCC1`
> 4.25 h

Determine its reported half-life: `O=S(=O)(c1nnc(N2CCC3(CC2)COC3)o1)C1CCCCC1`
1.87 h

Determine its reported half-life: `O=S(=O)(c1nnc(N2CCCCCC2)o1)C1CCCCC1`
1.13 h

----------
Assay: Selectivity index, ratio of IC50 for cytotoxicity against human NFF cells to IC50 for antimalarial activity against synchronous ring stage Plasmodium falciparum 3D7 infected in human Erythrocyte assessed as inhibition of parasite growth incubated for 96 hrs
Assay type: toxicity, cell-based
Details: read-out: Ratio IC50
endpoint-name: selectivity ratio at 96 h

test-smiles: O=S(=O)(CC12CC3CC(CC(C3)C1)C2)c1nnc(N2CCCCC2)o1
reported: 76
//
test-smiles: O=S(=O)(c1nnc(N2CCOCC2)o1)C1CCCCC1
reported: > 182
//
test-smiles: CC1(C)CCN(c2nnc(S(=O)(=O)C3CCCCC3)o2)CC1
reported: > 1080
//
test-smiles: CC(=O)N1CCN(c2nnc(S(=O)(=O)C3CCCCC3)o2)CC1
reported: > 69
//
test-smiles: O=S(=O)(c1nnc(N2C3CCCC2CC3)o1)C1CCCCC1
reported: > 246

Determine its reported selectivity ratio at 96 h: `CC(C)(C)CS(=O)(=O)c1nnc(N2CCOCC2)o1`
> 79

----------
Ratio IC50 values by entry
Assay: Selectivity ratio of IC50 for antimalarial activity against synchronous ring stage Plasmodium falciparum 3D7 infected in human Erythrocyte assessed as inhibition of parasite growth incubated for 48 hrs by [3H]-hypoxanthine incorporation assay to IC50 for antimalarial activity against synchronous ring stage Plasmodium falciparum 3D7 infected in human Erythrocyte assessed as inhibition of parasite growth incubated for 48 hrs by [3H]-hypoxanthine incorporation assay
Type: functional

Take a look at these entries with their results.
compound: O=S(=O)(c1nnc(N2CCCC2)o1)C1CCCCC1
Ratio IC50: >14

compound: O=S(=O)(c1nnc(N2CCNCC2)o1)C1CCCCC1
Ratio IC50: 16

compound: CC(C)(C)CS(=O)(=O)c1nnc(N2CCOCC2)o1
Ratio IC50: >8

compound: O=S1(=O)CCN(c2nnc(S(=O)(=O)C3CCCCC3)o2)CC1
Ratio IC50: >4

compound: CCOC(=O)C1CCCN(c2nnc(S(=O)(=O)C3CCCCC3)o2)C1 (racemic)
Ratio IC50: >27

Determine its reported Ratio IC50: `O=S(=O)(c1nnc(N2CCC3(CC2)OCCO3)o1)C1CCCCC1`
>56

Determine its reported Ratio IC50: `O=S(=O)(c1nnc(N2CCCCC2)o1)C1CCCCC1`
>32

Determine its reported Ratio IC50: `N#CC1CCN(c2nnc(S(=O)(=O)C3CCCCC3)o2)CC1`
>21

Determine its reported Ratio IC50: `CC1CCN(c2nnc(S(=O)(=O)Cc3ccc(Cl)c(Cl)c3)o2)CC1`
72

Determine its reported Ratio IC50: O=S(=O)(c1nnc(N2CC3CCC2C3)o1)C1CCCCC1 (racemic)
>45

Determine its reported Ratio IC50: `O=S(=O)(CC1CCCCC1)c1nnc(N2CCOCC2)o1`
45

Determine its reported Ratio IC50: `O=S(=O)(Cc1ccc(Cl)c(Cl)c1)c1nnc(N2CCOCC2)o1`
1.6

Determine its reported Ratio IC50: `C[C@@H]1CN(c2nnc(S(=O)(=O)C3CCCCC3)o2)C[C@H](C)O1`
>85

----------
Experiment: AUC (0 to t) in non fasted female BALB/c mouse plasma at 100 mg/kg, po via gavage and measured after 7.5 hrs by LC-MS analysis
Format: ADME, organism-based
endpoint-name: AUC(0-t) at 7.5 h (µM·h)
Answer format: numeric, µM·h implied, no suffix.

Take a look at these entries with their results.
test-smiles: O=S(=O)(c1nnc(N2CCOCC2)o1)C1CCCCC1
AUC(0-t) at 7.5 h / µM·h: 11.5
//
test-smiles: C[C@@H]1CCC[C@H](C)N1c1nnc(S(=O)(=O)C2CCCCC2)o1
AUC(0-t) at 7.5 h / µM·h: 0.39

Determine its reported AUC(0-t) at 7.5 h: `O=S(=O)(c1nnc(N2CCOCC2)o1)C1CCCCCC1`
1.16

----------
Ratio IC50 values by entry
Assay: Selectivity ratio of IC50 for antimalarial activity against synchronous ring stage Plasmodium falciparum 3D7 infected in human Erythrocyte assessed as inhibition of parasite growth incubated for 48 hrs by [3H]-hypoxanthine incorporation assay to IC50 for antimalarial activity against synchronous ring stage Plasmodium falciparum 3D7 infected in human Erythrocyte assessed as inhibition of parasite growth incubated for 48 hrs by [3H]-hypoxanthine incorporation assay
Format: functional

Take a look at these entries with their results.
test-smiles: O=S(=O)(c1nnc(N2CCOCC2)o1)C1CCCC1
Ratio IC50: >9

test-smiles: O=S(=O)(c1nnc(N2C3CCC2CC3)o1)C1CCCCC1
Ratio IC50: 7

test-smiles: O=S(=O)(c1nnc(N2CCOCC2)o1)C1CCCCC1
Ratio IC50: >91

Determine its reported Ratio IC50: `O=S(=O)(CC1CCC1)c1nnc(N2CCOCC2)o1`
>19
